System: VeroE6/TMPRSS2 cells
reported_conditions: African green monkey, 3 days

smiles_notation: CCCCn1c(=O)c2ccccc2c2cc(C(O)(C(F)(F)F)C(F)(F)F)cc(C)c21
CC50: > 10 µM
--
smiles_notation: CCCCn1c(=O)c2ccc(C)cc2c2cc(C(O)(C(F)(F)F)C(F)(F)F)ccc21
CC50: > 10 µM
--
smiles_notation: CCCCn1c(=O)c2cc(C)ccc2c2cc(C(O)(C(F)(F)F)C(F)(F)F)ccc21
CC50: > 10 µM

* * *

Tested on: SARS-CoV-2 (WK-521)
method_notes: microbe, parasite or virus in culture
Type: cell-based
reported_conditions: Severe acute respiratory syndrome coronavirus 2, HEK-293T, 72 h; HEK293T/ACE2 cells, MOI=0.1, 3 days, qPCR of viral RNA in supernatant; read-out: IC50(μM) (footnote defines IC90: 90% inhibitory concentration)

compound: CCCCn1c(=O)c2cc(NC(=O)C3CC3)ccc2c2cc(C(O)(C(F)(F)F)C(F)(F)F)ccc21
IC90: 1.8 µM
--
compound: CCCCn1c(=O)c2cc(F)c(OC3CCOC3)cc2c2cc(C(O)(C(F)(F)F)C(F)(F)F)ccc21 (centres unmarked)
IC90: 5.66 µM
--
compound: CCCCn1c(=O)c2ccc(OCCO)cc2c2cc(C(O)(C(F)(F)F)C(F)(F)F)ccc21
IC90: 3.72 µM
--
compound: CCCCn1c(=O)c2cc(F)c(OCC(O)CO)cc2c2cc(C(O)(C(F)(F)F)C(F)(F)F)ccc21 (centres unmarked)
IC90: 8.57 µM
--
compound: CCCCn1c(=O)c2cc(OCCO)ccc2c2cc(C(O)(C(F)(F)F)C(F)(F)F)cc(OC)c21
IC90: 14.8 µM

Data provenance: patent US20230192622A1
